Reference source: PubChem BioAssay (NCATS)

# test_method_notes: qHTS for Inhibitors of the vitamin D receptor (VDR): Hit Validation using a Texas Red Assay (AID 602201)
# measurement_context: VDR coregulator binding, Texas Red fluorescence polarization, agonist-bound VDR ligand-binding domain; series mostly up to 57.1 µM
Records with an inconclusive call do not appear. The source made the active and inactive calls. Calls come from the whole dose curve; as a rule, active = well fitted curve in the direction sought with a large enough effect; inconclusive = small, poorly fitted or top-dose-only effect, or another doubt; inactive = no such curve, though single readings can be large or run the other way.
Choose the fitting class; nothing outside active, inactive is accepted.

Any idea what this test logged for CCN(CC)c1ccc(C=Nc2ccc(N(C)C)cc2)c(O)c1 ? inactive

# lookup: test call for O=C1C(=O)c2c(C(=O)c3ccccc3)coc2-c2ccccc21 inactive

Check the results log: what was the call for C#CCOc1ccc(/C=C2/C(=O)ON=C2C)cc1Br ? inactive

Check the results log: what was the call for COc1ccc(N2C(=O)C(Cl)=C(Oc3cccc(OC)c3)C2=O)cc1 ? active

Hi, do you know how CCc1oc2ccccc2c1C(=O)CCN1CCCCC1 came out in this test? active

Dear colleague, could you share the recorded outcome for CCOc1cc(/C=C\c2[nH]c(=O)[nH]c(=O)c2[N+](=O)[O-])ccc1OC(C)CC (stereo unspecified) when you have a moment? inactive

Outcome? O=C(/C(=C/c1ccncc1)n1ccnc1)c1ccc(Cl)cc1Cl active

Could you kindly confirm the outcome this assay logged for COc1cccc(/C=C2\C(=O)N(c3cccc(C)c3)C(=O)c3ccccc32)c1 ? active

Outcome logged for [O-]/[N+](=C\c1ccccc1)c1ccc(Br)cc1 in this assay: inactive

How was CN(C)N=Nc1ccc2nc[nH]c2c1 classified in this test? inactive

Which outcome was assigned to CN(C)c1ccc(C=Nc2ccc(N(C)C)cc2)cc1 in this test? active

For this molecule, state the assay outcome: CC1=CC(=O)C(C(C)C)=CC1=NC(=O)c1ccc(C)cc1 inactive

Give the logged outcome of this assay for the following molecule: CCOC(=O)/C(C#N)=C1/C(=O)N(Cc2ccccc2)c2ccccc21 inactive

Given COc1ccc(/C=C/C(=O)c2ccc([N+](=O)[O-])o2)cc1OC , state the outcome it received in this test. active

What did the test return for CCOc1ccc(C(=O)CC(C(=O)O)N2CCCCC2)cc1 (stereo unspecified) ? inactive

Tell me the recorded outcome of this test for c1ccc(CCc2nn3c(Cc4ccccc4)nnc3s2)cc1 . active

Please state the recorded outcome for this molecule: CC(C)(C)c1nnc(NS(=O)(=O)c2ccc([N+](=O)[O-])cc2)s1 active

What is the recorded call for this molecule in the test? CCCOc1ccc(/C=C2/C(=O)ON=C2C)cc1OCC active

Outcome logged for Cc1ccc(S(=O)(=O)Oc2ccc(/C=C3\C(=N)N4N=C(S(C)(=O)=O)SC4=NC3=O)cc2)cc1 in this assay: inactive

What did the test return for O=C(/C=C/c1ccccc1Cl)c1cccnc1 ? inactive

Answer briefly: the call reported for COC(=O)/C=c1/sc2nc3ccccc3n2c1=O in this assay. active

Per the assay record, what outcome was assigned to CN1CCN(C(=S)C(=O)Nc2ccc(Br)cc2)CC1 ? active

Please let me know the test result on file for COc1ccc(C)cc1N1C(=N)/C(=C2/Nc3ccccc3S2)C(c2ccccc2)C1=O (stereo unspecified) . active

Hi team, can someone confirm the assay call for O=C(/C=C/c1cc(Br)ccc1O)c1ccco1 ? inactive

Please indicate how the test categorized CC(C)(C)C(=O)Nc1ccc2c(c1)C(=O)C(=O)c1ccccc1-2 . active

Tell me the assay call for CN(C)c1ccc(C(=S)N2CCN(c3ccc([N+](=O)[O-])cc3)CC2)cc1 please. inactive

Returns: the outcome recorded for FC(F)(F)c1cccc(Sc2nc(-c3ccccc3)nnc2C(F)(F)F)c1 in this assay. inactive

Which result was noted for this molecule in the test: O=C1NN(c2ccc(F)c(Cl)c2)C(=O)/C1=C\c1cccc(OC(=O)c2cccs2)c1 inactive

Hey, what did the test say about CCOc1cc(/C=C2\COc3ccccc3C2=O)cc(Br)c1OCC(=O)N(C)C ? inactive

// param item: O=[N+]([O-])c1ccccc1-c1ccc(C(=S)N2CCCC2)o1 ; yields the recorded call inactive

Hello, I am checking results. What call was entered for Oc1ccc(N=C/C=C/c2cccc(Br)c2)cc1-c1nc2ccccc2s1 ? active

State the result this test recorded for CC(C)c1nnc(NC(=O)CCS(=O)(=O)c2nc(-c3cccs3)cc(C(F)(F)F)n2)s1 . inactive

Per the assay record, what outcome was assigned to CCN(CC)S(=O)(=O)c1ccc(O)c(NS(=O)(=O)c2ccccc2F)c1 ? inactive

Hi, sorry to bother you, what did the test record for O=C(O)/C=C/C(=O)c1ccc2c(c1)NC(=O)CO2 ? inactive

Recorded call for Cc1c(Cc2ccc3c(c2)OCO3)sc(NC(=O)c2cccc3ccccc23)c1C(N)=O ? active

Fill in: this test's call for COc1cc(/C=C2\C(=O)ON=C2c2ccc(Cl)cc2)ccc1O is ___ active
